assay: isobaric coefficient of expansion; conditions: 338.15 K; 15000 kPa; Liquid; Microcalorimeter
outcome measure: isobaric coefficient of expansion

> print(dat)
                                   molecule  value.reported
1  CCCCCCn1cc[n+](C)c1.F[B-](F)(F)F [1-hexyl-3-methylimidazolium tetrafluoroborate]    0.000575 1/K
2  CCCC[n+]1cccc(C)c1.F[B-](F)(F)F [1-butyl-3-methylpyridinium tetrafluoroborate]    0.000562 1/K
3  CCCCCC[n+]1ccn(C)c1.O=S(=O)([N-]S(=O)(=O)C(F)(F)F)C(F)(F)F    0.000627 1/K
4  CCCCCCCC[n+]1ccn(C)c1.F[B-](F)(F)F [1-methyl-3-octylimidazolium tetrafluoroborate]    0.000575 1/K
5  CCn1cc[n+](C)c1.O=S(=O)([N-]S(=O)(=O)C(F)(F)F)C(F)(F)F    0.000624 1/K

Data request: Consider the molecule shown here: CCn1cc[n+](C)c1.F[B-](F)(F)F [1-ethyl-3-methylimidazolium tetrafluoroborate] What is its recorded isobaric coefficient of expansion?
Data returned: 0.000569 1/K
